Assay summary: Biodistribution studies in BALB/c mice
Assay type: in vivo
Experimental context: female, mouse, iv, total radioactivity; Lung, 10 min p.i., healthy BALB/c mice, 0.1 nmol i.v.; read-out: Biodistribution data, Lung
Measured property: tissue uptake at 10 min (%ID/g)
Unit %ID/g implied. Number only.

query: I'd like to know its tissue uptake at 10 min. The molecule in question is NC(=O)CNC(=O)CNC(=O)[C@H](CCCCNC(=O)CCCCc1cn(C2O[C@H](CO)[C@H](O)[C@H](O)[C@H]2O)nn1)NC(=O)CNC(=O)CNC(=O)[C@H](CCCCNC(=O)CCCCc1cn(C2O[C@H](CO)[C@H](O)[C@H](O)[C@H]2O)nn1)NC(=O)CNC(=O)CNC(=O)[C@H](CCCCNC(=O)CCCCc1cn(C2O[C@H](CO)[C@H](O)[C@H](O)[C@H]2O)nn1)NC(=O)CCCNC(=O)CC[C@H](C(=O)O)N1CCN(CC(=O)O)CCN(CC(=O)O)CC1 (stereo partly shown) [[68Ga]Ga-TriLysan, metal not drawn]
result: 2.56

* * *

Assay summary: Biodistribution studies in BALB/c mice
Format: in vivo
Experimental context: female, mouse, iv, total radioactivity; Spleen, 30 min p.i., healthy BALB/c mice, 0.1 nmol i.v.; read-out: Biodistribution data, Spleen
Measured property: tissue uptake at 0.5 h (%ID/g)
Unit %ID/g implied. Number only.

query: I'd like to know its tissue uptake at 0.5 h. The molecule in question is NC(=O)CNC(=O)CNC(=O)[C@H](CCCCNC(=O)CCCCc1cn(C2O[C@H](CO)[C@H](O)[C@H](O)[C@H]2O)nn1)NC(=O)CNC(=O)CNC(=O)[C@H](CCCCNC(=O)CCCCc1cn(C2O[C@H](CO)[C@H](O)[C@H](O)[C@H]2O)nn1)NC(=O)CNC(=O)CNC(=O)[C@H](CCCCNC(=O)CCCCc1cn(C2O[C@H](CO)[C@H](O)[C@H](O)[C@H]2O)nn1)NC(=O)CCCNC(=O)CC[C@H](C(=O)O)N1CCN(CC(=O)O)CCN(CC(=O)O)CC1 (stereo partly shown) [[68Ga]Ga-TriLysan, metal not drawn]
result: 0.42

* * *

Assay summary: Biodistribution studies in BALB/c mice
Assay type: in vivo
Experimental context: female, mouse, iv, total radioactivity; Kidneys, 60 min p.i., healthy BALB/c mice, 0.1 nmol i.v.; read-out: Biodistribution data, Kidneys
Measured property: tissue uptake at 1 h (%ID/g)
Unit %ID/g implied. Number only.

query: I'd like to know its tissue uptake at 1 h. The molecule in question is NC(=O)CNC(=O)CNC(=O)[C@H](CCCCNC(=O)CCCCc1cn(C2O[C@H](CO)[C@H](O)[C@H](O)[C@H]2O)nn1)NC(=O)CNC(=O)CNC(=O)[C@H](CCCCNC(=O)CCCCc1cn(C2O[C@H](CO)[C@H](O)[C@H](O)[C@H]2O)nn1)NC(=O)CNC(=O)CNC(=O)[C@H](CCCCNC(=O)CCCCc1cn(C2O[C@H](CO)[C@H](O)[C@H](O)[C@H]2O)nn1)NC(=O)CCCNC(=O)CC[C@H](C(=O)O)N1CCN(CC(=O)O)CCN(CC(=O)O)CC1 (stereo partly shown) [[68Ga]Ga-TriLysan, metal not drawn]
result: 1.99
